# Tested on: H9 cells
# MEASUREMENT PROTOCOL: qHTS for survival of dissociated H9 cells (CellTiter-Glo, 24 hours after seeding)
# Assay type: cell-based, human
# STATED CONDITIONS: Homo sapiens; H9 cell survival, CellTiter-Glo 24 hours after seeding; read-out: AC50 (concentration at 50% efficacy)
MEASURED PARAMETER: AC50

Query: Fill blank: measured AC50 of the molecule CCC[C@@]1(CCc2ccccc2)CC(O)=C([C@H](CC)c2cccc(NS(=O)(=O)c3ccc(C(F)(F)F)cn3)c2)C(=O)O1 [Tipranavir] is ____.
Reply: 26.1 µM

Query: Also C[S+]([O-])c1ccc(-c2nc(-c3ccncc3)c(-c3ccc(F)cc3)[nH]2)cc1 (stereo not shown) [SB-203580] ?
Reply: 15.2 µM

Query: And the next one, Cc1c[nH]c2ncnc(N3CCC(CN)(C(=O)Nc4cccc(OC(=O)N(C)C)c4)CC3)c12 [LX-7101] ?
Reply: 2.33 µM

Query: Quick one: Cc1c(O)c(O)cc2c1CC=C1[C@@]2(C)CC[C@@]2(C)[C@@H]3C[C@](C)(C(=O)O)CC[C@]3(C)CC[C@]12C [DIHYDROCELASTROL]
Reply: 14.7 µM

Query: And for C[C@H](NC(=O)C(=O)Nc1ccccc1C(C)(C)C)C(=O)N[C@@H](CC(=O)O)C(=O)COc1c(F)c(F)cc(F)c1F [Emricasan] ?
Reply: 33.2 µM

Query: Same lookup for C/C=C(/C)C(=O)O[C@H]1C(C)=C[C@]23C(=O)[C@@H](C=C(CO)[C@@H](O)[C@]12O)[C@H]1[C@@H](C[C@H]3C)C1(C)C [Ingenol mebutate] , please.
Reply: 0.118 µM

Query: Note, next up: O=C1NC(=O)C(=O)C(=O)N1 [ALLOXAN]
Reply: 5.21 µM

Source of measurements: patent US20210348119A1
